Test system: Fibroblast
Assay: Multiplex assay against human fibroblast
Assay type: toxicity, cell-based
Conditions: 12 h, 10 µM, compound concentration 10 uM, replicate 1
Response field label: string, one of met (Population Pyknosed Nuclei (%) strictly below 20%) or not met.

[
  {
    "compound": "Cl.Cl.Nc1ncnc2c1c(-c1cccc(OCc3ccccc3)c1)cn2[C@H]1C[C@@H](CN2CCC2)C1",
    "assayed.target": "Fibroblast",
    "classification": "not met"
  },
  {
    "compound": "CCc1cc2c(cc1CC)CC(NC[C@H](O)c1ccc(O)c3[nH]c(=O)ccc13)C2 [INDACATEROL]",
    "assayed.target": "Fibroblast",
    "classification": "met"
  },
  {
    "compound": "CCC(=O)O[C@]1(C(=O)SCF)[C@H](C)C[C@H]2[C@@H]3C[C@H](F)C4=CC(=O)C=C[C@]4(C)[C@@]3(F)[C@@H](O)C[C@@]21C [FLUTICASONE PROPIONATE]",
    "assayed.target": "Fibroblast",
    "classification": "not met"
  },
  {
    "compound": "Nc1nc2c(c(N3CCNCC3)n1)CCC1=C2[C@@H]2CCCC[C@@H]2O1",
    "assayed.target": "Fibroblast",
    "classification": "not met"
  },
  {
    "compound": "N#Cc1cnc(Nc2cc(NC[C@H]3CNCCO3)c(C(F)(F)F)cn2)cn1 [SRA-737]",
    "assayed.target": "Fibroblast",
    "classification": "met"
  },
  {
    "compound": "CC(C)N1CCC(C)(C)c2cc(C#Cc3ccc(C(=O)O)cc3)ccc21",
    "assayed.target": "Fibroblast",
    "classification": "met"
  },
  {
    "compound": "CCOc1cc(N2CCC(O)CC2)ccc1Nc1ncc2c(n1)N(C1CCCC1)CCC(=O)N2C",
    "assayed.target": "Fibroblast",
    "classification": "met"
  },
  {
    "compound": "CN(C)CCOc1ccc(-c2nc(-c3ccncc3)c(-c3ccc4c(c3)CC/C4=N\\O)[nH]2)cc1 [SB590885]",
    "assayed.target": "Fibroblast",
    "classification": "met"
  },
  {
    "compound": "CNc1oc(-c2cccc3ccccc23)nc1C#N",
    "assayed.target": "Fibroblast",
    "classification": "not met"
  },
  {
    "compound": "C[C@@H]1CN(c2cc(-c3nn(C)c4ccc(OC5(C)CC5)cc34)ncn2)C[C@H](C)O1 [MLi-2-NC]",
    "assayed.target": "Fibroblast",
    "classification": "met"
  },
  {
    "compound": "O=C(O)c1ccc2cc(-c3ccc(O)c(C45CC6CC(CC(C6)C4)C5)c3)ccc2c1 [O-DEMETHYLATED ADAPALENE]",
    "assayed.target": "Fibroblast",
    "classification": "not met"
  }
]

* * *

Tested on: Fibroblast
Assay: Multiplex assay against human fibroblast
Assay type: toxicity, cell-based
Conditions: 12 h, 1 µM, compound concentration 1 uM, replicate 1

[
  {
    "smiles.input": "CC(=O)c1cc(-c2cc(C(=O)NC3CC3)ccc2C)c2ncccn12",
    "unit.of.measure": "%",
    "Population Pyknosed Nuclei (%)": 36
  },
  {
    "smiles.input": "COc1cc2c(Nc3ccc(NC(=O)c4ccccc4)cc3)ncnc2cc1OCCCN1CCOCC1",
    "unit.of.measure": "%",
    "Population Pyknosed Nuclei (%)": 20
  },
  {
    "smiles.input": "CCOc1cc2ncc(C#N)c(Nc3ccc(OCc4cccc(F)c4)c(Cl)c3)c2cc1NC(=O)/C=C/CN(C)C",
    "unit.of.measure": "%",
    "Population Pyknosed Nuclei (%)": 18
  },
  {
    "smiles.input": "Cl.Cl.Nc1ncnc2c1c(-c1cccc(OCc3ccccc3)c1)cn2[C@H]1C[C@@H](CN2CCC2)C1",
    "unit.of.measure": "%",
    "Population Pyknosed Nuclei (%)": 20
  },
  {
    "smiles.input": "CC(C)N1CCC(C)(C)c2cc(C#Cc3ccc(C(=O)O)cc3)ccc21",
    "unit.of.measure": "%",
    "Population Pyknosed Nuclei (%)": 15
  },
  {
    "smiles.input": "COc1cc(N2CCC(N(C)C)CC2)ccc1Nc1ncc(Cl)c(Nc2ccccc2P(C)(C)=O)n1",
    "unit.of.measure": "%",
    "Population Pyknosed Nuclei (%)": 16
  },
  {
    "smiles.input": "Cl.Cl.NC1(c2ccc(-c3nc4ccn5c(=O)[nH]nc5c4cc3-c3ccccc3)cc2)CCC1",
    "unit.of.measure": "%",
    "Population Pyknosed Nuclei (%)": 15
  },
  {
    "smiles.input": "CC(C)(C)c1cnc(CSc2cnc(NC(=O)C3CCNCC3)s2)o1",
    "unit.of.measure": "%",
    "Population Pyknosed Nuclei (%)": 18
  },
  {
    "smiles.input": "Cc1cc2c(cc1N1C(=O)c3cccc4c(CCCO)ccc(c34)C1=O)n(C)c(=O)n2C",
    "unit.of.measure": "%",
    "Population Pyknosed Nuclei (%)": 31
  }
]

* * *

System: U2OS
Assay: Multiplex assay against U2OS
Format: toxicity, cell-based
Details: human, 12 h, 1 µM, compound concentration 1 uM, replicate 2

[
  {
    "molecule": "CC(C)Oc1ccc(C(=O)N[C@H](CNC(=O)CN(C)C)Cc2ccc(-c3cn4cccc([C@H](C)O)c4n3)cc2)cc1Cl [GSK-923295A]",
    "unit.of.measure": "%",
    "Population Pyknosed Nuclei (%)": 22
  },
  {
    "molecule": "COc1ccc(NS(=O)(=O)c2sc3ccc(Cl)cc3c2C)cc1N1CCNCC1.Cl",
    "unit.of.measure": "%",
    "Population Pyknosed Nuclei (%)": 16
  },
  {
    "molecule": "CNc1oc(-c2cccc3ccccc23)nc1C#N",
    "unit.of.measure": "%",
    "Population Pyknosed Nuclei (%)": 2
  },
  {
    "molecule": "CC(C)N1CCC(C)(C)c2cc(C#Cc3ccc(C(=O)O)cc3)ccc21",
    "unit.of.measure": "%",
    "Population Pyknosed Nuclei (%)": 8
  }
]

* * *

Test system: U2OS
Assay: Multiplex assay against U2OS
Assay type: toxicity, cell-based
Conditions: human, 24 h, 1 µM, compound concentration 1 uM, replicate 1

[
  {
    "compound": "CCOc1cc2ncc(C#N)c(Nc3ccc(OCc4cccc(F)c4)c(Cl)c3)c2cc1NC(=O)/C=C/CN(C)C",
    "Population Apoptotic (%)": 32
  },
  {
    "compound": "CN(C)C/C=C/C(=O)Nc1cc2c(Nc3ccc(F)c(Cl)c3)ncnc2cc1O[C@H]1CCOC1.O=C(O)/C=C\\C(=O)O.O=C(O)/C=C\\C(=O)O [AFATINIB DIMALEATE]",
    "Population Apoptotic (%)": 72
  },
  {
    "compound": "CN(C)CCOc1ccc(-c2nc(-c3ccncc3)c(-c3ccc4c(c3)CC/C4=N\\O)[nH]2)cc1",
    "Population Apoptotic (%)": 85
  },
  {
    "compound": "Cc1cn(-c2cc(NC(=O)c3ccc4c(c3)CN(c3cncnc3)C[C@@H]4C)cc(C(F)(F)F)c2)cn1",
    "Population Apoptotic (%)": 45
  }
]

* * *

Test system: U2OS
Experiment: Multiplex assay against U2OS
Format: toxicity, cell-based
Conditions: human, 12 h, 1 µM, compound concentration 1 uM, replicate 1

[
  {
    "compound": "CCOc1cc2ncc(C#N)c(Nc3ccc(OCc4cccc(F)c4)c(Cl)c3)c2cc1NC(=O)/C=C/CN(C)C",
    "assayed.target": "U2OS",
    "Population Mitotic Cells (%)": 41
  },
  {
    "compound": "COc1cc2c(NC3CCN(C(C)C)CC3)nc(N3CCC(F)(F)CC3)nc2cc1OCCCN1CCCC1",
    "assayed.target": "U2OS",
    "Population Mitotic Cells (%)": 55
  },
  {
    "compound": "CC(C)(C)c1cnc(CSc2cnc(NC(=O)C3CCNCC3)s2)o1",
    "assayed.target": "U2OS",
    "Population Mitotic Cells (%)": 73
  },
  {
    "compound": "CN(C)C/C=C/C(=O)Nc1cc2c(Nc3ccc(F)c(Cl)c3)ncnc2cc1O[C@H]1CCOC1.O=C(O)/C=C\\C(=O)O.O=C(O)/C=C\\C(=O)O [AFATINIB DIMALEATE]",
    "assayed.target": "U2OS",
    "Population Mitotic Cells (%)": 43
  },
  {
    "compound": "CNC(=O)c1nn(C)c2c1C(C)(C)Cc1cnc(Nc3ccc(N4CCN(C)CC4)cc3)nc1-2",
    "assayed.target": "U2OS",
    "Population Mitotic Cells (%)": 60
  },
  {
    "compound": "Cc1cn(-c2cc(NC(=O)c3ccc4c(c3)CN(c3cncnc3)C[C@@H]4C)cc(C(F)(F)F)c2)cn1",
    "assayed.target": "U2OS",
    "Population Mitotic Cells (%)": 43
  },
  {
    "compound": "CCc1cc2c(cc1CC)CC(NC[C@H](O)c1ccc(O)c3[nH]c(=O)ccc13)C2",
    "assayed.target": "U2OS",
    "Population Mitotic Cells (%)": 58
  },
  {
    "compound": "CC(=O)c1cc(-c2cc(C(=O)NC3CC3)ccc2C)c2ncccn12",
    "assayed.target": "U2OS",
    "Population Mitotic Cells (%)": 57
  }
]
